study target: HLA-B*15:01
experiment: IEDB peptide-MHC binding, purified MHC/direct/fluorescence; filed as Kd, often an IC50 or EC50 that approximates it; bounds were set here for any values at or beyond the usual limits of such assays
stated conditions: source organism: Vibrio parahaemolyticus
pKd: −log10 of the molar value.
measurement name: pKd

VMETENALF : 6.52

* * *

study target: HLA-B*44:02
experiment: IEDB peptide-MHC binding, purified MHC/competitive/radioactivity; filed as Kd, often an IC50 or EC50 that approximates it; bounds were set here for any values at or beyond the usual limits of such assays
stated conditions: source organism: Dengue virus 4 Philippines/H241/1956
measurement name: Kd (nM)

SEMGANFRAG : 95
AEIQPQWIAA : 67.2

* * *

study target: HLA-A*03:01
experiment: IEDB peptide-MHC binding, purified MHC/competitive/radioactivity; filed as Kd, often an IC50 or EC50 that approximates it; bounds were set here for any values at or beyond the usual limits of such assays
stated conditions: source organism: Vaccinia virus WR
# Kd annotations
measurement name: Kd (µM)

IVNNQESNKY : 0.487
NFEALEATK : 4.21
QTTVNTLSER : 1.52
NSFIISTLNK : 0.416
IFPGDKTSY : 11.6
HAFDAPTLY : 0.0339
SIYSRPKIK : 0.00267
FFRKLVLTNK : 1.02
TILLSDKGK : 1.54
KIIAVFDSK : 0.00819
YVIRHVDGK : 1.45
PVIVVPVIDR : 4.82
EISSNDNAK : 16.8
ELNIVDEIIK : 11.8
FLDKSIHLTK : 0.117
VVKLTAVCMK : 0.115

* * *

study target: HLA-A*03:01
experiment: IEDB peptide-MHC binding, purified MHC/direct/fluorescence; filed as Kd, often an IC50 or EC50 that approximates it; bounds were set here for any values at or beyond the usual limits of such assays
stated conditions: source organism: Vibrio parahaemolyticus
Reported values of Kd for individual entries
measurement name: Kd

VMETENALF : ≥ 20 µM
NSDPEFNVL : ≥ 20 µM

* * *

study target: HLA-A*68:02
experiment: IEDB peptide-MHC binding, purified MHC/competitive/fluorescence; filed as Kd, often an IC50 or EC50 that approximates it; bounds were set here for any values at or beyond the usual limits of such assays
stated conditions: source organism: Toxoplasma gondii
measurement name: Kd

HNFRAPAPV : ≤ 100 pM

* * *

study target: HLA-B*35:01
experiment: IEDB peptide-MHC binding, purified MHC/competitive/radioactivity; filed as Kd, often an IC50 or EC50 that approximates it; bounds were set here for any values at or beyond the usual limits of such assays
stated conditions: source organism: Dengue virus 3 Martinique/1243/1999
measurement name: Kd (nM)

TPPGTADAF : 278

* * *

study target: HLA-A*68:02
experiment: IEDB peptide-MHC binding, purified MHC/direct/fluorescence; filed as Kd, often an IC50 or EC50 that approximates it; bounds were set here for any values at or beyond the usual limits of such assays
stated conditions: source organism: Choclo virus
measurement name: Kd

LPSSSSYSY : ≥ 20 µM

* * *

study target: HLA-B*18:01
experiment: IEDB peptide-MHC binding, purified MHC/direct/fluorescence; filed as Kd, often an IC50 or EC50 that approximates it; bounds were set here for any values at or beyond the usual limits of such assays
stated conditions: source organism: dengue virus type 1
measurement name: Kd

REDQWCGSL : 11.6 µM

* * *

study target: HLA-B*08:01
experiment: IEDB peptide-MHC binding, purified MHC/competitive/radioactivity; filed as Kd, often an IC50 or EC50 that approximates it; bounds were set here for any values at or beyond the usual limits of such assays
stated conditions: source organism: Vaccinia virus Copenhagen
measurement name: Kd (nM)

SIKMKLVSI : 16.4

* * *

study target: HLA-B*57:01
experiment: IEDB peptide-MHC binding, purified MHC/competitive/fluorescence; filed as Kd, often an IC50 or EC50 that approximates it; bounds were set here for any values at or beyond the usual limits of such assays
stated conditions: source organism: Bacillus anthracis str. A0488
measurement name: Kd

FVMPIFEQI : ≥ 20 µM

* * *

study target: HLA-B*46:01
experiment: IEDB peptide-MHC binding, purified MHC/competitive/fluorescence; filed as Kd, often an IC50 or EC50 that approximates it; bounds were set here for any values at or beyond the usual limits of such assays
stated conditions: source organism: Bacillus anthracis str. A0488
measurement name: Kd

FVMPIFEQI : ≥ 20 µM

* * *

study target: HLA-B*07:02
experiment: IEDB peptide-MHC binding, purified MHC/direct/fluorescence; filed as Kd, often an IC50 or EC50 that approximates it; bounds were set here for any values at or beyond the usual limits of such assays
stated conditions: source organism: Vibrio parahaemolyticus
measurement name: Kd

NSDPEFNVL : ≥ 20 µM

* * *

pKd overview
study target: HLA-B*40:02
experiment: IEDB peptide-MHC binding, purified MHC/competitive/radioactivity; filed as Kd, often an IC50 or EC50 that approximates it; bounds were set here for any values at or beyond the usual limits of such assays
stated conditions: source organism: Mammarenavirus machupoense
pKd: −log10 of the molar value.
measurement name: pKd

KEINFLSQT : 7.82
EELSLMYETL : 6.96

* * *

study target: HLA-B*40:02
experiment: IEDB peptide-MHC binding, purified MHC/competitive/radioactivity; filed as Kd, often an IC50 or EC50 that approximates it; bounds were set here for any values at or beyond the usual limits of such assays
stated conditions: source organism: Lassa virus Josiah
measurement name: Kd (nM)

AEAQMSIQL : 12.6

* * *

study target: HLA-B*44:02
experiment: IEDB peptide-MHC binding, purified MHC/competitive/radioactivity; filed as Kd, often an IC50 or EC50 that approximates it; bounds were set here for any values at or beyond the usual limits of such assays
stated conditions: source organism: Dengue virus 2 Jamaica/1409/1983
pKd: −log10 of the molar value.
measurement name: pKd

QEHETSWHYD : 6.80
MEEALRGLPI : 7.53

* * *

study target: HLA-A*32:01
experiment: IEDB peptide-MHC binding, purified MHC/competitive/radioactivity; filed as Kd, often an IC50 or EC50 that approximates it; bounds were set here for any values at or beyond the usual limits of such assays
stated conditions: source organism: Mammarenavirus guanaritoense
pKd: −log10 of the molar value.
measurement name: pKd

ELLSYCVSLF : 5.58

* * *

study target: HLA-B*35:01
experiment: IEDB peptide-MHC binding, purified MHC/competitive/fluorescence; filed as Kd, often an IC50 or EC50 that approximates it; bounds were set here for any values at or beyond the usual limits of such assays
stated conditions: source organism: Variola virus
pKd: −log10 of the molar value.
measurement name: pKd

IHSDQLSKF : 5.62

* * *

study target: HLA-A*02:06
experiment: IEDB peptide-MHC binding, purified MHC/competitive/radioactivity; filed as Kd, often an IC50 or EC50 that approximates it; bounds were set here for any values at or beyond the usual limits of such assays
stated conditions: source organism: Dengue virus 4 Philippines/H241/1956
pKd: −log10 of the molar value.
measurement name: pKd

FTDPSSVAA : 7.23
KQITNELNYV : 7.87

* * *

study target: HLA-B*57:01
experiment: IEDB peptide-MHC binding, purified MHC/competitive/fluorescence; filed as Kd, often an IC50 or EC50 that approximates it; bounds were set here for any values at or beyond the usual limits of such assays
stated conditions: source organism: Orthohantavirus sinnombreense
measurement name: Kd

LVTARQKLK : ≥ 20 µM

* * *

study target: HLA-C*12:03
experiment: IEDB peptide-MHC binding, purified MHC/direct/fluorescence; filed as Kd, often an IC50 or EC50 that approximates it; bounds were set here for any values at or beyond the usual limits of such assays
stated conditions: source organism: Mammarenavirus machupoense
measurement name: Kd

DAMPGVLSY : ≥ 20 µM

* * *

study target: HLA-B*58:01
experiment: IEDB peptide-MHC binding, purified MHC/direct/fluorescence; filed as Kd, often an IC50 or EC50 that approximates it; bounds were set here for any values at or beyond the usual limits of such assays
stated conditions: source organism: Giardia lamblia ATCC 50803
measurement name: Kd (µM)

RIGGVLIFR : 6
KAMSTPFSL : 0.0153

* * *

study target: HLA-A*02:03
experiment: IEDB peptide-MHC binding, purified MHC/competitive/radioactivity; filed as Kd, often an IC50 or EC50 that approximates it; bounds were set here for any values at or beyond the usual limits of such assays
stated conditions: source organism: Vaccinia virus WR
pKd: −log10 of the molar value.
measurement name: pKd

IVYGRSNAIL : 7.48
LILSNKLLYA : 6.91
YLYTEYFLFL : 8.88
ELENKKVEYV : 5.44
TQFNFNGHT : 4.84
IVVPVIDRL : 6.65
IQYRQQLEL : 7.35

* * *

study target: HLA-B*44:03
experiment: IEDB peptide-MHC binding, purified MHC/competitive/radioactivity; filed as Kd, often an IC50 or EC50 that approximates it; bounds were set here for any values at or beyond the usual limits of such assays
stated conditions: source organism: Murray valley encephalitis virus (strain MVE-1-51)
pKd: −log10 of the molar value.
measurement name: pKd

LEFEALGFL : 5.30
